Biological target: GlcNAc(b1-3)Gal(b1-4)GlcNAc(b1-6)[Gal(b1-3)]GalNAc
Experiment: glycan array binding signal (z-score within array); higher = stronger binding
Details: glycan notation: IUPAC condensed, linker removed
Many of the other results were omitted from the sample, so the strongest signals are more common in it than they were.
Give glycan array binding signal (z-score) for every item shown.
Numbers only.

binder: Dectin2 (Homo sapiens), Q6EIG7 (protein) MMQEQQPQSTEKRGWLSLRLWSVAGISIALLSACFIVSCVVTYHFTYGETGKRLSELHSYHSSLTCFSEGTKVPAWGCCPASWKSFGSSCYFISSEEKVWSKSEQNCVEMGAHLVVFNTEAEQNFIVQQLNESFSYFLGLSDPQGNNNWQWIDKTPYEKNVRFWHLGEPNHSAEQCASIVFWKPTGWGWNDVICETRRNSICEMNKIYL
glycan array binding signal (z-score): -0.196
--
binder: Gal 4 (Mus musculus), P56470 (protein) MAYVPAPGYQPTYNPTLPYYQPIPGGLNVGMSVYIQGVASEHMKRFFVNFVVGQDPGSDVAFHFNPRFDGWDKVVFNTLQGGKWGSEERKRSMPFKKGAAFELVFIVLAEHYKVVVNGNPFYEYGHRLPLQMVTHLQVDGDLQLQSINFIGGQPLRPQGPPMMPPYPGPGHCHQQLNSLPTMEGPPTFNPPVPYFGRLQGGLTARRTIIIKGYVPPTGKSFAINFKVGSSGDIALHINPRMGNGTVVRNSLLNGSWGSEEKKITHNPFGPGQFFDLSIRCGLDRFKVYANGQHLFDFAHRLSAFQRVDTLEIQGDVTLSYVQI
glycan array binding signal (z-score): -0.174
--
binder: PNA (Arachis hypogaea), P02872 (protein) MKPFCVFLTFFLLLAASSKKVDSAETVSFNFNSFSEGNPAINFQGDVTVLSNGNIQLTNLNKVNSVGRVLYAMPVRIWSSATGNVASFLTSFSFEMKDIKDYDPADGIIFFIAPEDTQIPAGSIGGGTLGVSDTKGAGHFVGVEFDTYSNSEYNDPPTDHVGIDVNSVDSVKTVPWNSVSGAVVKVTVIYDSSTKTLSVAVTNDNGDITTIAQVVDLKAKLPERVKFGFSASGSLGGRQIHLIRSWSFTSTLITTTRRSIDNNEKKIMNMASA
glycan array binding signal (z-score): 5.04
--
binder: ECA (Erythrina cristagalli), P83410 (protein) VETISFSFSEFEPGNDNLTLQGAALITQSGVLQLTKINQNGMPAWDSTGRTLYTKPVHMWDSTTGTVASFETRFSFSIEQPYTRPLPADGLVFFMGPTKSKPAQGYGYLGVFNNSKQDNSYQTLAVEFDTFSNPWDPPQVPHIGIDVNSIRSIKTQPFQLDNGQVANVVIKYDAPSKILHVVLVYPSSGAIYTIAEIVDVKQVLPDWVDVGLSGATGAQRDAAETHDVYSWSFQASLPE
glycan array binding signal (z-score): -0.412
--
binder: LlpB (Pseudomonas fluorescens) (protein) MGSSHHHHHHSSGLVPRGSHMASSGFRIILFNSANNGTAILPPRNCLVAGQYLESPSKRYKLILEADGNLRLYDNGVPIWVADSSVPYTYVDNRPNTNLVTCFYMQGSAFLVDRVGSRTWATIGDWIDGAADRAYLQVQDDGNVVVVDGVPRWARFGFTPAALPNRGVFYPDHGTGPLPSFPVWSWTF
glycan array binding signal (z-score): 1.38

State recorded glycan array binding signal (z-score) for all listed binders.
1. SJA (Sophora japonica) (protein) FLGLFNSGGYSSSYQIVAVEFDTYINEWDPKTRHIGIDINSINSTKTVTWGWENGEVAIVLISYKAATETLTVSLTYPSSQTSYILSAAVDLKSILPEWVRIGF
2. Sebin2 (Coprinopsis cinerea), A8PE78 (protein) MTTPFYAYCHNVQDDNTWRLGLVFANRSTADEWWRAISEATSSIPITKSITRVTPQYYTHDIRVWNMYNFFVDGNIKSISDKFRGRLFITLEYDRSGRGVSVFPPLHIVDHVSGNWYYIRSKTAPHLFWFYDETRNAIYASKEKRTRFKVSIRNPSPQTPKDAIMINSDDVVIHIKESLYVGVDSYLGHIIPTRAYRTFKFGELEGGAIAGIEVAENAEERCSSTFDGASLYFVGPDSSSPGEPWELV
3. AT1G15820(2) (Arabidopsis thaliana), Q9LMQ2 (protein) MAMAVSGAVLSGLGSSFLTGGKRGATALASGVGTGAQRVGRKTLIVAAAAAQPKKSWIPAVKGGGNFLDPEWLDGSLPGDFGFDPLGLGKDPAFLKWYREAELIHGRWAMAAVLGIFVGQAWSGVAWFEAGAQPDAIAPFSFGSLLGTQLLLMGWVESKRWVDFFNPDSQSVEWATPWSKTAENFANYTGDQGYPGGRFFDPLGLAGKNRDGVYEPDFEKLERLKLAEIKHSRLAMVAMLIFYFEAGQGKTPLGALGL

[-0.24, -0.253, -0.16]
